# assayComment: Cytotoxicity, resazurin assay, HEK293
# experimentalParameters: human
Positions of bridges follow the written chain, without caps; N, C: chain ends. Non-standard residues stand in square brackets, D forms with d. Residues, ends and D or L forms follow the SMILES beside them. *: point of attachment. Decanoyl(3R-OH) = CCCCCCC[C@@H](O)CC(=O)*; dPhe(3-Cl) = N[C@H](Cc1cccc(Cl)c1)C(=O)O; X1 = CCCCCCCN1CCC(C(=O)*)CC1; X7 = CCC(C)CCCCC(O)CC(=O)*; dDab = NCC[C@@H](N)C(=O)O; Dab = NCC[C@H](N)C(=O)O
Below, each entry is listed alongside its reported CC50 at 24 h.

Entry CCC(C)CCCCC(O)CC(=O)N[C@@H](CCN)C(=O)N[C@H]1CCNC(=O)[C@H](CC(C)C)NC(=O)[C@H](CCN)NC(=O)[C@H](CCN)NC(=O)[C@H](CC(C)C)NC(=O)[C@@H](Cc2ccccc2)NC(=O)[C@H](CCN)NC1=O (stereo partly drawn) [compound 5567] (X7-[Dab][Dab][Dab][dF]L[Dab][Dab]L; lactam 2-C) needs its CC50 at 24 h filled in; supply it.
292 µM

Specify reported CC50 at 24 h for the molecule shown: CCCCCCC[C@@H](O)CC(=O)N[C@H](CCN)C(=O)N[C@H]1CCNC(=O)[C@H](Cc2c[nH]c3ccccc23)NC(=O)[C@H](CCN)NC(=O)[C@H](CCN)NC(=O)[C@H](CC(C)C)NC(=O)[C@@H](Cc2cccc(Cl)c2)NC(=O)[C@H](CCN)NC1=O [compound 8914] ({Decanoyl(3R-OH)}-[dDab][Dab][Dab][dPhe(3-Cl)]L[Dab][Dab]W; lactam 2-C)
25 µM

Read off the recorded CC50 at 24 h for CCCCCCCN1CCC(C(=O)N[C@H](CCN)C(=O)N[C@H]2CCNC(=O)[C@H](CC(C)C)NC(=O)[C@H](CCN)NC(=O)[C@H](CCN)NC(=O)[C@H](Cc3ccccc3)NC(=O)[C@@H](CC(C)C)NC(=O)[C@H](CCN)NC2=O)CC1 [compound 6516] (X1-[dDab][Dab][Dab][dL]F[Dab][Dab]L; lactam 2-C)
> 300 µM

----------
# System: E. coli ATCC 25922
# experimentalParameters: ATCC 25922
Positions of bridges follow the written chain, without caps; N, C: chain ends. Non-standard residues stand in square brackets, D forms with d. Residues, ends and D or L forms follow the SMILES beside them. *: point of attachment. Benzoyl(4-OPh) = O=C(c1ccc(Oc2ccccc2)cc1)*; Decanoyl(3R-OH) = CCCCCCC[C@@H](O)CC(=O)*; dBip = N[C@H](Cc1ccc(-c2ccccc2)cc1)C(=O)O; dChg = N[C@@H](C(=O)O)C1CCCCC1; Decanoyl = CCCCCCCCCC(=O)*; dOrn = NCCC[C@@H](N)C(=O)O; Nonanoyl = CCCCCCCCC(=O)*; dDab = NCC[C@@H](N)C(=O)O; dDap = NC[C@@H](N)C(=O)O; Dab = NCC[C@H](N)C(=O)O; Dap = NC[C@H](N)C(=O)O
Threshold 20 µg/mL: MIC E. coli ATCC 25922 strictly smaller gives satisfied, otherwise not satisfied.

Example entries begin here.
>>> cat("CCCCCCC[C@@H](O)CC(=O)N[C@H](CCN)C(=O)N[C@H]1CNC(=O)[C@H](CC(C)C)NC(=O)[C@H](CCN)NC(=O)[C@H](CCN)NC(=O)[C@H](CC(C)C)NC(=O)[C@@H](CC(C)C)NC(=O)[C@H](CCN)NC1=O [compound 633] ({Decanoyl(3R-OH)}-[dDab][Dap][Dab][dL]L[Dab][Dab]L; lactam 2-C)")
"satisfied"
>>> cat("CCCCCCC[C@@H](O)CC(=O)N[C@H](CCCN)C(=O)N[C@H]1CCNC(=O)[C@H]([C@@H](C)O)NC(=O)[C@H](CCN)NC(=O)[C@H](CCN)NC(=O)[C@H](CC(C)C)NC(=O)[C@@H](Cc2ccccc2)NC(=O)[C@H](CCN)NC1=O [compound 6396] ({Decanoyl(3R-OH)}-[dOrn][Dab][Dab][dF]L[Dab][Dab]T; lactam 2-C)")
"satisfied"
>>> cat("CC(C)C[C@@H]1NC(=O)[C@H](CCN)NC(=O)[C@H](CCN)NC(=O)[C@H](Cc2ccccc2)NC(=O)[C@@H](CC(C)C)NC(=O)[C@H](CCN)NC(=O)[C@@H](NC(=O)[C@@H](CCN)NC(=O)c2ccc(Oc3ccccc3)cc2)CCNC1=O [compound 6519] ({Benzoyl(4-OPh)}-[dDab][Dab][Dab][dL]F[Dab][Dab]L; lactam 2-C)")
"satisfied"
>>> cat("CCCCCCC[C@@H](O)CC(=O)N[C@H](CCN)C(=O)N[C@H]1CCNC(=O)[C@H]([C@@H](C)O)NC(=O)[C@H](CCCNC(=N)N)NC(=O)[C@H](CCN)NC(=O)[C@H](CC(C)C)NC(=O)[C@@H](Cc2ccccc2)NC(=O)[C@H](CCN)NC1=O [compound 5606] ({Decanoyl(3R-OH)}-[dDab][Dab][Dab][dF]L[Dab]RT; lactam 2-C)")
"not satisfied"
>>> cat("CCCCCCC[C@@H](O)CC(=O)N[C@H](CCN)C(=O)N[C@H]1CCNC(=O)[C@H](CC(C)C)NC(=O)[C@H](CCN)NC(=O)[C@H](CCN)NC(=O)[C@H]([C@@H](C)O)NC(=O)[C@@H](Cc2ccccc2)NC(=O)[C@H](CCN)NC1=O [compound 9289] ({Decanoyl(3R-OH)}-[dDab][Dab][Dab][dF]T[Dab][Dab]L; lactam 2-C)")
"satisfied"

Threshold test, MIC E. coli ATCC 25922 < 20 µg/mL: CCCCCCC[C@@H](O)CC(=O)N[C@@H](CCN)C(=O)N[C@H]1CCNC(=O)[C@H](CC(C)C)NC(=O)[C@H](CN)NC(=O)[C@H](CCN)NC(=O)[C@H](CC(C)C)NC(=O)[C@@H](Cc2ccccc2)NC(=O)[C@H](CCN)NC1=O [compound 5564] ({Decanoyl(3R-OH)}-[Dab][Dab][Dab][dF]L[Dab][Dap]L; lactam 2-C)
satisfied

I'd appreciate it if you could check whether CCCCCCC[C@@H](O)CC(=O)N[C@H](CCN)C(=O)N[C@H]1CCNC(=O)[C@H](Cc2c[nH]c3ccccc23)NC(=O)[C@H](CCN)NC(=O)[C@H](CCN)NC(=O)[C@H](CC(C)C)NC(=O)[C@@H](C2CCCCC2)NC(=O)[C@H](CCN)NC1=O [compound 8899] ({Decanoyl(3R-OH)}-[dDab][Dab][Dab][dChg]L[Dab][Dab]W; lactam 2-C) has MIC E. coli ATCC 25922 smaller than 20 µg/mL.
satisfied

Is MIC E. coli ATCC 25922 strictly under 20 µg/mL for the entry CC(=O)N[C@H](CCN)C(=O)N[C@H]1CCNC(=O)[C@H](Cc2c[nH]c3ccccc23)NC(=O)[C@H](CCN)NC(=O)[C@H](CCN)NC(=O)[C@H](CC(C)C)NC(=O)[C@@H](Cc2ccccc2)NC(=O)[C@H](CCN)NC1=O [compound 8981] (Ac-[dDab][Dab][Dab][dF]L[Dab][Dab]W; lactam 2-C) ?
not satisfied

Check if MIC E. coli ATCC 25922 falls below 20 µg/mL for CCCCCCC[C@@H](O)CC(=O)N[C@@H](CCN)C(=O)N[C@@H]1CCNC(=O)[C@H](CC(C)C)NC(=O)[C@H](CCN)NC(=O)[C@H](CCN)NC(=O)[C@H](CC(C)C)NC(=O)[C@@H](Cc2ccc(-c3ccccc3)cc2)NC(=O)[C@H](CCN)NC1=O [compound 6661] ({Decanoyl(3R-OH)}-[Dab][dDab][Dab][dBip]L[Dab][Dab]L; lactam 2-C) .
not satisfied

is_below(MIC E. coli ATCC 25922, 20 µg/mL) for CCCCCCCCC(=O)N[C@H](CN)C(=O)N[C@H]1CCNC(=O)[C@H](CC(C)C)NC(=O)[C@H](CCN)NC(=O)[C@H](CCN)NC(=O)[C@H](CC(C)C)NC(=O)[C@@H](Cc2ccccc2)NC(=O)[C@H](CCN)NC1=O [compound 9191] (Nonanoyl-[dDap][Dab][Dab][dF]L[Dab][Dab]L; lactam 2-C) ?
satisfied

Lab note: confirm whether the reported MIC E. coli ATCC 25922 for this molecule is below 20 µg/mL, equality not counting. molecule: CCCCCCC[C@@H](O)CC(=O)N[C@H](CCN)C(=O)N[C@H]1CCNC(=O)[C@H](Cc2ccccc2)NC(=O)[C@H](CN)NC(=O)[C@H](CCN)NC(=O)[C@H](CC(C)C)NC(=O)[C@@H](Cc2ccc(-c3ccccc3)cc2)NC(=O)[C@H](CCN)NC1=O [compound 5384] ({Decanoyl(3R-OH)}-[dDab][Dab][Dab][dBip]L[Dab][Dap]F; lactam 2-C)
satisfied

MIC E. coli ATCC 25922 under 20 µg/mL? Item: CCCCCCCCCC(=O)N[C@H](CN)C(=O)N[C@H]1CCNC(=O)[C@H](CC(C)C)NC(=O)[C@H](CCN)NC(=O)[C@H](CCN)NC(=O)[C@H](CC(C)C)NC(=O)[C@@H](Cc2ccccc2)NC(=O)[C@H](CCN)NC1=O [compound 9192] (Decanoyl-[dDap][Dab][Dab][dF]L[Dab][Dab]L; lactam 2-C)
satisfied
